// data source = paper PMC5681660

// reported B-score binding assay for each item listed
Molecular target: human NTCP (Homo sapiens, UniProt Q14973)
Sequence (Q14973 whole entry): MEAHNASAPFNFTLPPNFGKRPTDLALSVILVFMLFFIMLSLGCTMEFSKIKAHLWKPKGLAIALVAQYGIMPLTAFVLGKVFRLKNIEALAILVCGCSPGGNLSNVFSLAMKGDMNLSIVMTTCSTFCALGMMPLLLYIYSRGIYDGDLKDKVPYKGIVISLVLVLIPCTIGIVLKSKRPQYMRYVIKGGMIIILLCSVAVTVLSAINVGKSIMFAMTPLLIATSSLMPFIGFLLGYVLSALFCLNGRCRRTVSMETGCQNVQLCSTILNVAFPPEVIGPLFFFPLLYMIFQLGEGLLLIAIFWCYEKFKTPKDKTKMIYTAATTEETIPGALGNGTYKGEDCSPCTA
Test: Screening fluorescent competitive Myrcludex B-FITC binding assay (96-well, 10 µM drug)
Settings: Prestwick library screen, Myrcludex B-FITC binding, 10 µM drug
Non-standard residues stand in square brackets, D forms with d. Residues, ends and D or L forms follow the SMILES beside them. *: point of attachment. Sta = CC(C)C[C@H](N)[C@@H](O)CC(=O)O; Isovaleryl = CC(C)CC(=O)*

compound	B-score binding assay
CC(C)CC(=O)N[C@H](C(=O)N[C@H](C(=O)N[C@@H](CC(C)C)[C@@H](O)CC(=O)N[C@@H](C)C(=O)N[C@@H](CC(C)C)[C@@H](O)CC(=O)O)C(C)C)C(C)C [Pepstatin A] (Isovaleryl-VV[Sta]A[Sta]-OH)	-0.237
C[N+](C)(C)CCCCCC[N+](C)(C)C.O.O.[Br-].[Br-] [Hexamethonium dibromide dihydrate]	0.191
CNC(C)(C)Cc1ccccc1.CNC(C)(C)Cc1ccccc1.O=S(=O)(O)O [Mephentermine hemisulfate]	0.758
